reported_property: melting point

compound | result_value
CCNC(=O)Nc1cnc2ccc(Nc3cccc(CC(=O)O)c3)nc2n1 [Compound 194] | 305 to 308 °C
CCNC(=S)Nc1ccc2ncc(Nc3ccc(F)c(F)c3)nc2n1 [Compound 433] | 265 °C
COc1cc(-c2ccc3ncc(NC(=O)Nc4ccc5sccc5c4)nc3n2)ccc1O [Compound 609] | 257 to 259 °C
CCNC(=O)Nc1ccc2ncc(-c3cc(C)cc(C)c3)nc2n1 [Compound 82] | 255.3 to 257.9 °C
CCNC(=S)Nc1ccc2ncc(Nc3ccccc3O)nc2n1 [Compound 149] | 280 °C

###

molecular target: Erk2 (Mus musculus, UniProt P63085)
Sequence (P63085 whole entry): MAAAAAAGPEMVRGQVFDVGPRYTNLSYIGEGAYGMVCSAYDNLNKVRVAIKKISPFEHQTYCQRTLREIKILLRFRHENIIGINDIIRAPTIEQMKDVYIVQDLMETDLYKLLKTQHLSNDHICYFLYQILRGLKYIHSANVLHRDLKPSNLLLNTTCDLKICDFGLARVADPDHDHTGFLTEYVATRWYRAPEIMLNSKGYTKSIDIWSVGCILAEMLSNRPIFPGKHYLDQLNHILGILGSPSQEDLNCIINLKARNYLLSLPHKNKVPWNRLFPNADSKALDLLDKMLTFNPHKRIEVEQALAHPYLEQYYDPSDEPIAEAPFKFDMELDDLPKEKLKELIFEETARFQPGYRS
reported_property: IC50

smiles_structure | system_under_test | result_value
COc1cc(-c2ccc3ncc(NC(=O)Nc4cccs4)nc3n2)ccc1O | Erk2 (Mus musculus, UniProt P63085) | < 31.6 µM
COc1cc(-c2ccc3ncc(NC(=O)NCCCl)nc3n2)ccc1O | Erk2 (Mus musculus, UniProt P63085) | < 50 µM
CCNC(=O)Nc1cnc2ccc(-c3ccc(O)c(Cl)c3)nc2n1 | Erk2 (Mus musculus, UniProt P63085) | > 100 µM
CCNC(=S)Nc1ccc2ncc(Nc3ccc(OC)c(O)c3)nc2n1 | Erk2 (Mus musculus, UniProt P63085) | > 100 µM
COc1cc(-c2ccc3ncc(NC(=O)NC4CCN(C(=O)C(F)(F)F)CC4)nc3n2)ccc1O | Erk2 (Mus musculus, UniProt P63085) | < 10 µM
CCNC(=O)Nc1cnc2ccc(-c3ccc(O)c(OC)c3)nc2n1 | Erk2 (Mus musculus, UniProt P63085) | > 100 µM
CNC(=O)Nc1cnc2ccc(-c3ccc(OC)c(OC)c3)nc2n1 | Erk2 (Mus musculus, UniProt P63085) | > 100 µM
CNC(=S)Nc1cnc2ccc(-c3ccc(O)c(OC)c3)nc2n1 | Erk2 (Mus musculus, UniProt P63085) | > 100 µM
COc1cc(-c2ccc3ncc(NC(=O)Nc4ccncc4)nc3n2)ccc1O | Erk2 (Mus musculus, UniProt P63085) | > 31.6 µM
CCNC(=O)Nc1ccc2ncc(-c3ccc(OC(C)=O)c(OC)c3)nc2n1 | Erk2 (Mus musculus, UniProt P63085) | < 0.5 µM

###

melting point values, listed per item

compound | melting point
O=C(Nc1cnc2ccc(-c3cc(Cl)c(O)c(Cl)c3)nc2n1)Nc1cccs1 [Compound 560] | 253 to 255 °C
COc1cc(-c2ccc3ncc(NC(=O)NC(C)(C)CC(C)(C)C)nc3n2)ccc1O [Compound 613] | 232 to 236 °C
CCNC(=O)Nc1ccc2ncc(-c3ccc(O)c(Br)c3)nc2n1 [Compound 47] | 337 to 339 °C
COc1cc(-c2ccc3ncc(NC(=O)Nc4ccc(-n5cccc5)cc4)nc3n2)ccc1O [Compound 623] | 263 to 265 °C
CCNC(=O)Nc1ccc2ncc(-c3ccc(OC)c(O)c3)nc2n1 [Compound 46] | > 270 °C
CCNC(=O)Nc1ccc2ncc(Nc3cccc(CO)c3)nc2n1 [Compound 154] | 238 °C
CCNC(=O)Nc1ccc2ncc(-c3ccc(OP(=O)([O-])[O-])c(OC)c3)nc2n1.[Na+].[Na+] | > 350 °C
CCNC(=O)Nc1ccc2ncc(-c3ccc(N)c([N+](=O)[O-])c3)nc2n1 [Compound 78] | > 350 °C
CCNC(=O)Nc1cnc2ccc(Nc3cnc4ccccc4c3)nc2n1 [Compound 32] | 265 to 270 °C
CCNC(=O)Nc1ccc2ncc(-c3ccc(NC(=O)CCC(=O)OC)cc3)nc2n1 [Compound 76] | 253 °C
O=C(NCCc1ccccc1)Nc1cnc2ccc(-c3cc(Cl)c(O)c(Cl)c3)nc2n1 [Compound 564] | 280 to 282 °C
COc1cc(-c2ccc3ncc(NC(=O)NC4CCCCC4)nc3n2)ccc1O [Compound 17] | 232 to 235 °C
CCNC(=O)Nc1ccc2ncc(-c3cccc(N(C)C)c3)nc2n1 [Compound 144] | 240 to 244 °C
COc1ccc(-c2ccc3ncc(NC(=O)Nc4ccccc4)nc3n2)cc1OC [Compound 580] | 248 to 251 °C
CCCCNC(=O)Nc1cnc2ccc(-c3ccc(O)c(OC)c3)nc2n1 [Compound 631] | 223 to 226 °C
CCNC(=O)Nc1ccc2ncc(-c3ccn[nH]3)nc2n1 [Compound 52] | 218 to 220 °C
COc1cc(Nc2cnc3ccc(NC(=S)NC4CC4)nc3n2)cc(OC)c1OC [Compound 707] | 248 °C
COc1cc(-c2ccc3ncc(NC(=O)Nc4ccccc4)nc3n2)ccc1O [Compound 3] | 240 °C

###

melting point for assorted compounds

compound | melting point
CCNC(=S)Nc1ccc2ncc(Nc3ccc(F)c([N+](=O)[O-])c3)nc2n1 | 260 °C
COc1cc(Nc2cnc3ccc(NC(=S)NC(C)c4ccccc4)nc3n2)cc(OC)c1OC (stereo not drawn) | 248 °C
CCNC(=S)Nc1ccc2ncc(Nc3ccc(O)c(OC)c3)nc2n1 | 269 °C
CCNC(=O)Nc1ccc2ncc(Nc3ccc(OC)c(O)c3)nc2n1 | 281 °C
COc1cc(-c2ccc3ncc(NC(=S)NC4CCCCC4)nc3n2)ccc1O | 253 to 254 °C
CCNC(=O)Nc1ccc2ncc(-c3ccccc3OCc3ccccc3)nc2n1 | 181 to 183 °C
COc1ccc(-c2ccc3ncc(NC(=O)NCCc4ccccc4)nc3n2)cc1OC | 254 to 257 °C
COc1cc(-c2ccc3ncc(NC(=O)Nc4cccc(-n5cccc5)c4)nc3n2)ccc1O | 214 to 217 °C
CCNC(=S)Nc1cnc2ccc(Nc3ccc(C)cc3)nc2n1 | 195 °C
CCNC(=O)Nc1cnc2ccc(-c3ccc(C)cc3)nc2n1 | 227 to 228 °C
CCNC(=S)Nc1ccc2ncc(-c3cnn(C)c3)nc2n1 | 242 °C
CCNC(=O)Nc1cnc2ccc(-c3ccc(C(=O)O)c(O)c3)nc2n1 | 225 °C
COc1cc(-c2ccc3ncc(NC(=O)NC4CCC(C)CC4)nc3n2)ccc1O (stereo not drawn) | 272 to 273 °C
CCNC(=O)Nc1ccc2ncc(Nc3ccc(C(=O)OC)c(OC)c3)nc2n1 | 256 to 259 °C
COc1cc(-c2ccc3ncc(NC(=S)NC4CCCCCCC4)nc3n2)ccc1O | 250 to 251 °C
CC(C)Oc1cccc(Nc2cnc3ccc(NC(=O)NC4CC4)nc3n2)c1 | 134 °C
COc1cc(Nc2cnc3ccc(NC(=S)NCCN4CCCCC4)nc3n2)cc(OC)c1OC | 206 °C
CCNC(=O)Nc1ccc2ncc(-c3cnc4[nH]ccc4c3)nc2n1 | 270 to 274 °C
CCNC(=O)Nc1ccc2ncc(-c3cc(C)c(C)c(C)c3)nc2n1 | 228 to 233 °C
CCNC(=O)Nc1ccc2ncc(-c3ccc4c(c3)N(C)CCO4)nc2n1 | 245 to 247 °C
COc1ccc(-c2ccc3ncc(NC(=O)c4ccccc4)nc3n2)cc1OC | 168 to 170 °C
CCNC(=O)Nc1ccc2ncc(-c3cnn(CC(C)C)c3)nc2n1 | 189 to 191 °C
CCNC(=O)Nc1ccc2ncc(-c3ccc(OC)cc3C)nc2n1 | 223 to 225 °C
CCNC(=O)Nc1cnc2ccc(-c3cc(C(C)(C)C)c(O)c(C(C)(C)C)c3)nc2n1 | 263 °C
CCNC(=O)Nc1ccc2ncc(-c3cc(C)c(OC)c(C)c3)nc2n1 | 255.3 to 258.2 °C
CCNC(=O)Nc1ccc2ncc(-c3cnn(CCN4CCOCC4)c3)nc2n1 | 223 to 226 °C
CCNC(=O)Nc1ccc2ncc(-c3ccc(OCCCN4CCOCC4)c(OC)c3)nc2n1 | 225 to 227 °C
COc1cc(-c2ccc3ncc(NC(=O)NC(C)(C)C)nc3n2)ccc1O | 219 to 222 °C
CCNC(=O)Nc1ccc2ncc(-c3cccc(OCc4cc(OC)cc(OC)c4)c3)nc2n1 | 212 to 217 °C
O=C(Nc1ccc(F)cc1)Nc1cnc2ccc(-c3cc(Cl)c(O)c(Cl)c3)nc2n1 | 289 to 291 °C
CCNC(=O)Nc1cnc2ccc(-c3ccc(N)c(OC)c3)nc2n1 | > 310 °C
CCNC(=O)Nc1ccc2ncc(-c3ccc(C(=O)OC)cc3)nc2n1 | 260 °C
CCNC(=O)Nc1ccc2ncc(-c3ccc(F)c(F)c3)nc2n1 | 259 to 262 °C
CCNC(=O)Nc1cnc2ccc(NCC3CC3)nc2n1 | 201 to 203 °C
CCNC(=S)Nc1ccc2ncc(Nc3ccc(-n4cncn4)cc3)nc2n1 | 294 °C
COc1cc(Nc2cnc3ccc(NC(=S)NCCCc4ccccc4)nc3n2)cc(OC)c1OC | 195 to 198 °C

###

smiles_structure | melting point
COc1cc(-c2ccc3ncc(NC(=O)Nc4ccc(C#N)cc4)nc3n2)ccc1O | 259 to 261 °C
CCNC(=O)Nc1ccc2ncc(Nc3ccc(C(=O)N4CCOCC4)cc3)nc2n1 | 276 to 279 °C
CNC(=O)Nc1cnc2ccc(-c3ccc(OC)c(OC)c3)nc2n1 | 253 to 255 °C
CCNC(=O)Nc1ccc2ncc(-c3cc(Cl)c(OS(C)(=O)=O)c(OC)c3)nc2n1 | 247 to 249 °C
